# ASSAY_SYSTEM: ClpC1 NTD protein (M. tuberculosis) (Mycobacterium tuberculosis, UniProt P9WPC9)
# Sequence (P9WPC9 1-156, looked up, natural form): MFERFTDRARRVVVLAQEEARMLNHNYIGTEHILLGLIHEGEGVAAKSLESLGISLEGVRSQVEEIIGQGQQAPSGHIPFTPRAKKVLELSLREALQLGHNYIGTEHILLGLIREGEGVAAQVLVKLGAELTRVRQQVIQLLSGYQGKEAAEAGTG
# ASSAY: biochemical
# Assay type: binding
# RUN_CONDITIONS: SPR, single independent measurements
*1 amine or outer side, *2 acyl side, *3 side chain or, on linkers, in order; H or OH if unused. Where a SMILES comes first, the peptide text is derived from it. [ ]: non-standard residue; d: D form. X3 = C#CCOc1ccc([C@@H](OC)[C@H](N[*:1])C(=O)[*:2])cc1; X5 = C=CCn1cc(C[C@@H](C(=O)[*:2])N(C)[*:1])c2ccccc21; X1 = C#CCn1cc(C[C@H](N[*:1])C(=O)[*:2])c2ccccc21; X7 = C=CCn1cc(C[C@H](N[*:1])C(=O)[*:2])c2ccccc21; NMeLeu(5-OH,4R) = CN[C@@H](C[C@@H](C)CO)C(=O)O; Phe(βR-OMe) = CO[C@H](c1ccccc1)[C@H](N)C(=O)O; Trp(1-Me) = Cn1cc(C[C@H](N)C(=O)O)c2ccccc21; NMeL = CN[C@@H](CC(C)C)C(=O)O
# koff ClpC1-NTD annotations
MEASURED_METRIC: koff ClpC1-NTD (s⁻¹)

[[record]]
molecule = "C=CCn1cc(C[C@H]2C(=O)N(C)[C@@H](C[C@@H](C)CO)C(=O)N[C@@H](C)C(=O)N[C@@H]([C@H](OC)c3ccccc3)C(=O)N[C@@H](C(C)C)C(=O)N(C)[C@@H](CC(C)C)C(=O)N[C@@H](C(C)C)C(=O)N2C)c2ccccc21 [SI-60] (cyclo(A[Phe(βR-OMe)]V[NMeL]V[X5][NMeLeu(5-OH,4R)]))"
unit_of_measure = "s⁻¹"
data_value = 0.04

[[record]]
molecule = "C#CCOc1ccc([C@@H](OC)[C@@H]2NC(=O)[C@H](C)NC(=O)[C@H](C[C@@H](C)CO)N(C)C(=O)[C@H](Cc3cn(C)c4ccccc34)NC(=O)[C@H](C(C)C)NC(=O)[C@H](CC(C)C)N(C)C(=O)[C@H](C(C)C)NC2=O)cc1 [SI-38] (cyclo(A[X3]V[NMeL]V[Trp(1-Me)][NMeLeu(5-OH,4R)]))"
unit_of_measure = "s⁻¹"
data_value = 0.04

[[record]]
molecule = "C#CCn1cc(C[C@@H]2NC(=O)[C@H](C(C)C)NC(=O)[C@H](CC(C)C)N(C)C(=O)[C@H](C(C)C)NC(=O)[C@H]([C@H](OC)c3ccccc3)NC(=O)[C@H](C)NC(=O)[C@H](C[C@@H](C)CO)N(C)C2=O)c2ccccc21 [Compound 5] (cyclo(A[Phe(βR-OMe)]V[NMeL]V[X1][NMeLeu(5-OH,4R)]))"
unit_of_measure = "s⁻¹"
data_value = 0.04

[[record]]
molecule = "CO[C@H](c1ccc(OCc2cn(CCCCCn3cc(COc4ccc([C@@H](OC)[C@@H]5NC(=O)[C@H](C)NC(=O)[C@H](C[C@@H](C)CO)N(C)C(=O)[C@H](Cc6cn(C)c7ccccc67)NC(=O)[C@H](C(C)C)NC(=O)[C@H](CC(C)C)N(C)C(=O)[C@H](C(C)C)NC5=O)cc4)nn3)nn2)cc1)[C@@H]1NC(=O)[C@H](C)NC(=O)[C@H](C[C@@H](C)CO)N(C)C(=O)[C@H](Cc2cn(C)c3ccccc23)NC(=O)[C@H](C(C)C)NC(=O)[C@H](CC(C)C)N(C)C(=O)[C@H](C(C)C)NC1=O"
unit_of_measure = "s⁻¹"
data_value = 0.0009

[[record]]
molecule = "CO[C@H](c1ccccc1)[C@@H]1NC(=O)[C@H](C)NC(=O)[C@H](C[C@@H](C)CO)N(C)C(=O)[C@H](Cc2cn(C)c3ccccc23)N(C)C(=O)[C@H](Cc2cn(CCOCCOCCn3cc(C[C@@H]4NC(=O)[C@H](CC(C)C)N(C)C(=O)[C@H](C(C)C)NC(=O)[C@H]([C@H](OC)c5ccccc5)NC(=O)[C@H](C)NC(=O)[C@H](C[C@@H](C)CO)N(C)C(=O)[C@H](Cc5cn(C)c6ccccc56)N(C)C4=O)nn3)nn2)NC(=O)[C@H](CC(C)C)N(C)C(=O)[C@H](C(C)C)NC1=O"
unit_of_measure = "s⁻¹"
data_value = 0.005

[[record]]
molecule = "CO[C@H](c1ccccc1)[C@@H]1NC(=O)[C@H](C)NC(=O)[C@H](C[C@@H](C)CO)N(C)C(=O)[C@H](Cc2cn(Cc3cn(CCOCCn4cc(Cn5cc(C[C@@H]6NC(=O)[C@H](C(C)C)NC(=O)[C@H](CC(C)C)N(C)C(=O)[C@H](C(C)C)NC(=O)[C@H]([C@H](OC)c7ccccc7)NC(=O)[C@H](C)NC(=O)[C@H](C[C@@H](C)CO)N(C)C6=O)c6ccccc65)nn4)nn3)c3ccccc23)NC(=O)[C@H](C(C)C)NC(=O)[C@H](CC(C)C)N(C)C(=O)[C@H](C(C)C)NC1=O"
unit_of_measure = "s⁻¹"
data_value = 0.001

[[record]]
molecule = "C#CCn1cc(C[C@@H]2NC(=O)[C@H](C(C)C)NC(=O)[C@H](CC(C)C)N(C)C(=O)[C@H](C(C)C)NC(=O)[C@H](Cc3ccccc3)NC(=O)[C@H](C)NC(=O)[C@H](C[C@@H](C)CO)N(C)C2=O)c2ccccc21 [SI-72] (cyclo(AFV[NMeL]V[X1][NMeLeu(5-OH,4R)]))"
unit_of_measure = "s⁻¹"
data_value = 0.05

[[record]]
molecule = "C=CCn1cc(C[C@@H]2NC(=O)[C@H](C(C)C)NC(=O)[C@H](CC(C)C)N(C)C(=O)[C@H](C(C)C)NC(=O)[C@H]([C@H](OC)c3ccccc3)NC(=O)[C@H](C)NC(=O)[C@H](C[C@@H](C)CO)N(C)C2=O)c2ccccc21 [Compound 13] (cyclo(A[Phe(βR-OMe)]V[NMeL]V[X7][NMeLeu(5-OH,4R)]))"
unit_of_measure = "s⁻¹"
data_value = 0.1

[[record]]
molecule = "CO[C@H](c1ccccc1)[C@@H]1NC(=O)[C@H](C)NC(=O)[C@H](C[C@@H](C)CO)N(C)C(=O)[C@H](Cc2cn(Cc3cn(CCCCCn4cc(Cn5cc(C[C@H]6C(=O)N(C)[C@@H](C[C@@H](C)CO)C(=O)N[C@@H](C)C(=O)N[C@@H]([C@H](OC)c7ccccc7)C(=O)N[C@@H](C(C)C)C(=O)N(C)[C@@H](CC(C)C)C(=O)N[C@@H](C(C)C)C(=O)N6C)c6ccccc65)nn4)nn3)c3ccccc23)N(C)C(=O)[C@H](C(C)C)NC(=O)[C@H](CC(C)C)N(C)C(=O)[C@H](C(C)C)NC1=O"
unit_of_measure = "s⁻¹"
data_value = 0.001


====

The following compounds are shown together with reported Hepatocyte Stability Human QH values.
# Format: in vitro ADME, Human
# RUN_CONDITIONS: human, pH 7.4
*1 amine or outer side, *2 acyl side, *3 side chain or, on linkers, in order; H or OH if unused. Where a SMILES comes first, the peptide text is derived from it. [ ]: non-standard residue; d: D form. X1 = C#CCn1cc(C[C@H](N[*:1])C(=O)[*:2])c2ccccc21; X4 = C=CCO[C@H](c1ccccc1)[C@H](N[*:1])C(=O)[*:2]; NMeLeu(5-OH,4R) = CN[C@@H](C[C@@H](C)CO)C(=O)O; Phe(βR-OMe) = CO[C@H](c1ccccc1)[C@H](N)C(=O)O; Trp(1-Me) = Cn1cc(C[C@H](N)C(=O)O)c2ccccc21; NMeL = CN[C@@H](CC(C)C)C(=O)O
MEASURED_METRIC: Hepatocyte Stability Human QH (%)

[[record]]
compound = "C#CCn1cc(C[C@@H]2NC(=O)[C@H](C(C)C)NC(=O)[C@H](CC(C)C)N(C)C(=O)[C@H](C(C)C)NC(=O)[C@H]([C@H](OC)c3ccccc3)NC(=O)[C@H](C)NC(=O)[C@H](C[C@@H](C)CO)N(C)C2=O)c2ccccc21 [Compound 5] (cyclo(A[Phe(βR-OMe)]V[NMeL]V[X1][NMeLeu(5-OH,4R)]))"
unit_of_measure = "%"
data_value = 12.386

[[record]]
compound = "CO[C@H](c1ccccc1)[C@@H]1NC(=O)[C@H](C)NC(=O)[C@H](C[C@@H](C)CO)N(C)C(=O)[C@H](Cc2cn(Cc3cn(CCCCCn4cc(Cn5cc(C[C@@H]6NC(=O)[C@H](C(C)C)NC(=O)[C@H](CC(C)C)N(C)C(=O)[C@H](C(C)C)NC(=O)[C@H]([C@H](OC)c7ccccc7)NC(=O)[C@H](C)NC(=O)[C@H](C[C@@H](C)CO)N(C)C6=O)c6ccccc65)nn4)nn3)c3ccccc23)NC(=O)[C@H](C(C)C)NC(=O)[C@H](CC(C)C)N(C)C(=O)[C@H](C(C)C)NC1=O [Compound 9]"
unit_of_measure = "%"
data_value = 12.386

[[record]]
compound = "C=CCO[C@H](c1ccccc1)[C@@H]1NC(=O)[C@H](C)NC(=O)[C@H](C[C@@H](C)CO)N(C)C(=O)[C@H](Cc2cn(C)c3ccccc23)NC(=O)[C@H](C(C)C)NC(=O)[C@H](CC(C)C)N(C)C(=O)[C@H](C(C)C)NC1=O [Compound 14] (cyclo(A[X4]V[NMeL]V[Trp(1-Me)][NMeLeu(5-OH,4R)]))"
unit_of_measure = "%"
data_value = 41.006

[[record]]
compound = "COC(c1ccccc1)C1NC(=O)C(C)NC(=O)C(CC(C)CO)N(C)C(=O)C(Cc2cn(CC=CCn3cc(CC4NC(=O)C(C(C)C)NC(=O)C(CC(C)C)N(C)C(=O)C(C(C)C)NC(=O)C(C(OC)c5ccccc5)NC(=O)C(C)NC(=O)C(CC(C)CO)N(C)C4=O)c4ccccc43)c3ccccc23)NC(=O)C(C(C)C)NC(=O)C(CC(C)C)N(C)C(=O)C(C(C)C)NC1=O (stereo not drawn) [Compound 15]"
unit_of_measure = "%"
data_value = 12.386

[[record]]
compound = "CO[C@H](c1ccccc1)[C@@H]1NC(=O)[C@H](C)NC(=O)[C@H](C[C@@H](C)CO)N(C)C(=O)[C@H](Cc2cn(C)c3ccccc23)NC(=O)[C@H](Cc2cn(CCOCCOCCn3cc(C[C@@H]4NC(=O)[C@H](CC(C)C)N(C)C(=O)[C@H](C(C)C)NC(=O)[C@H]([C@H](OC)c5ccccc5)NC(=O)[C@H](C)NC(=O)[C@H](C[C@@H](C)CO)N(C)C(=O)[C@H](Cc5cn(C)c6ccccc56)NC4=O)nn3)nn2)NC(=O)[C@H](CC(C)C)N(C)C(=O)[C@H](C(C)C)NC1=O [Compound 11]"
unit_of_measure = "%"
data_value = 12.386

[[record]]
compound = "CO[C@H](c1ccccc1)[C@@H]1NC(=O)[C@H](C)NC(=O)[C@H](C[C@@H](C)CO)N(C)C(=O)[C@H](Cc2cn(Cc3cn(CCOCCOCCOCCOCCn4cc(Cn5cc(C[C@H]6C(=O)N(C)[C@@H](C[C@@H](C)CO)C(=O)N[C@@H](C)C(=O)N[C@@H]([C@H](OC)c7ccccc7)C(=O)N[C@@H](C(C)C)C(=O)N(C)[C@@H](CC(C)C)C(=O)N[C@@H](C(C)C)C(=O)N6C)c6ccccc65)nn4)nn3)c3ccccc23)N(C)C(=O)[C@H](C(C)C)NC(=O)[C@H](CC(C)C)N(C)C(=O)[C@H](C(C)C)NC1=O [Compound 27]"
unit_of_measure = "%"
data_value = 12.386

